Data provenance: the supplement of paper PMC10201428

B1: library; a variant is named by its letters at N, in order (parent)
chain: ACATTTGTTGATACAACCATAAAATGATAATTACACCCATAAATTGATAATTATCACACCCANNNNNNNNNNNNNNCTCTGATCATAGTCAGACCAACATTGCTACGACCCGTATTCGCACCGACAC

# Variants of: B1
# ASSAY_TEXT: relative integration efficiency (T-RL orientation) vs wild-type transposon end (log2 (normalized fold change)); transposon end mutated: right end (5 bp flank + 75 bp right end); higher = more efficient transposition
# TEST_CONDITIONS: with VchCAST RNA-guided transposition machinery (E. coli BL21(DE3) host, lacZ target)
ASSAY_ENDPOINT: relative integration efficiency (log2)
// print number alone

Could you tell me which relative integration efficiency (log2) is on file for TAAATTGATATTGC T25C ?
-0.146

relative integration efficiency (log2) lookup needed for TAAATTGATATTGC A50T , thanks.
-0.455

Find the recorded relative integration efficiency (log2) belonging to "TAATATGATATTGC" and report it.
-0.0671

Need relative integration efficiency (log2), item ATTTAACTATAACG T31A
-1.32

Find the recorded relative integration efficiency (log2) belonging to ATTTAACTATAACG T12G and report it.
-0.699

# get_value(readout='relative integration efficiency (log2)', item= ATTTAACTATAACG T28G )
-1.52
